Answer each item with its documented growth.
# Tested on: SK-OV-3 ovarian
# Measurement Protocol: NCI-60 one-dose screen, 48 h (100 = growth as untreated, 0 = no growth, -100 = all killed)
# Settings: 10 µM unless noted
# Protocol: Growth inhibition of the SK-OV-3 human tumor cell line is measured as a screen for anti-cancer activity. Cells are grown in 96 well plates and exposed to the test compound for 48 hours. Compounds are tested at a single concentration, which is 10^-5 M for most compounds. The reported endpoint is percent growth (GI% or GIPRCNT), where numbers from 0 - 100% represent growth inhibition, and numbers from -100% - 0 represent cell death. For example, a value of 40 represents 60% growth inhibition. […]
Compounds without any hit were thinned out: in the full panel of roughly 83,000, 20% have a hit. Calls of active or inactive are those of the source. Rule for the calls: active = growth percent below 10; inactive = the rest.

Measured growth of C=CCc1cc(Cl)cc2c(OC(C)=O)c(C(C)=O)c(-c3ccccc3)nc12 : 99.9% (inactive)

Please look at the items below and tell me growth for each one, in order.
1. COC(=O)c1ccc(C)cc1
2. O=C(O)c1cn(C2CC2)c2cc(N3CCN(S(=O)(=O)c4ccc(Cl)c(Cl)c4)CC3)c(F)cc2c1=O
3. COc1cc2c(cc1OC)C1(C)N(CC2)C(=O)OC1(C)C (stereo unspecified)
4. O=C(O)C(Cc1ccccc1)N1C(=O)/C(=C/C(Cl)=C/c2ccc([N+](=O)[O-])cc2)SC1=S (stereo unspecified)
5. CC(=O)Nc1ccc(S(=O)(=O)N2C(=O)CCC2C(=O)Nc2ccc(Br)cc2)cc1 (stereo unspecified)
6. Oc1ccc(Cl)cc1-c1cc(-c2ccc(Cl)cc2)n[nH]1

Output:
99.6% (inactive)
26.8% (inactive)
107% (inactive)
83.4% (inactive)
69.2% (inactive)
79% (inactive)
